Items are presented alongside their recorded TGI.
# Tested on: 786-0 renal
# experimental.details: NCI tumour cell line growth inhibition, 48 h
measurement.name: TGI

>>> measured_result("c1ccc2c(c1)oc1ccc3nsnc3c12")
"> 100 µM"
>>> measured_result("Cc1nc2c(n1C)C(=O)c1ccccc1C2=O")
"> 100 µM"
>>> measured_result("CC(C)(C)OC(=O)NCC(CNC(=O)OC(C)(C)C)c1nc(C(N)=O)cs1")
"> 100 µM"
>>> measured_result("COc1cc(C)c(C2NC(=O)c3ccccc3N2)cc1C (stereo unspecified)")
"> 100 µM"
>>> measured_result("CCN(c1cc(-c2ccc(CN3CCOCC3)cc2)cc(C(=O)NCc2c(C)cc(C)[nH]c2=O)c1C)C1CCOCC1")
"40.7 µM"
>>> measured_result("CC(C)CCCC(C)[C@H]1CCC2[C@@H]3CCC4Nc5c(cnn5-c5ccccc5)C[C@]4(C)C3CC[C@@]21C (stereo partly specified)")
"> 100 µM"
>>> measured_result("Cc1c2c(c(C)c3c4c(oc13)CCCC4)C=NCC2")
"> 100 µM"
>>> measured_result("C/C(=N\\Nc1nc2cc(C(F)(F)F)ccc2s1)c1ccccn1")
"5.5 µM"
>>> measured_result("Cn1c(=O)oc2nc(-c3ccccc3)cc(C(F)(F)F)c21")
"> 100 µM"
>>> measured_result("CCOP(=O)(O)CN1CCNCCN(CP(=O)(O)OCC)CCNCC1")
"> 100 µM"
>>> measured_result("O=C(O)COc1cc(-c2ccccc2)nc2cc(F)ccc12")
"> 100 µM"

---

Entries annotated with measured GI50
# Tested on: TK-10 renal
# experimental.details: NCI tumour cell line growth inhibition, 48 h
measurement.name: GI50

>>> measured_result("Cn1cc(C2=C(c3cn(C)c4ccc(Cl)cc34)C(=O)NC2=O)c2ccccc21")
"5.55 µM"
>>> measured_result("Cc1cc(O)c(C2=NN(c3ccc(S(N)(=O)=O)cc3)C(c3ccc(Cl)cc3)C2)c(C)c1Cl (stereo not given)")
"4.48 µM"
>>> measured_result("Cc1c(-c2ccnc(N)n2)c2c(n1Cc1ccccc1)C(=O)c1ccccc1C2=O")
"17.3 µM"
>>> measured_result("CC(=O)[O-].[Mn+3].[O-]c1ccccc1C=NCCNCCN=Cc1ccccc1[O-]")
"> 100 µM"
>>> measured_result("CCCCCC[C@H](C)Nc1nc2ccccc2c2occc12")
"6.46 µM"

---

# Test system: M14 melanoma
# experimental.details: NCI tumour cell line growth inhibition, 48 h
measurement.name: TGI (µM)

>>> measured_result("CC(=O)NC1C(OCc2ccccc2)OC(CO)C(O)C1OC(C)C(=O)NC(C(=O)NC(CCC(=O)NCCCCNc1c2ccccc2nc2cccc([N+](=O)[O-])c12)C(N)=O)C(C)C (stereo not given)")
3.32
>>> measured_result("c1ccc(/C(=N/Nc2ccncn2)c2ccccn2)cc1")
30.5
>>> measured_result("Cc1c2c(c(C)c3c4c(oc13)CCCC4)C=NCC2")
44.5

---

Quick reference: TGI of the listed items.
# System: K-562 leukemia
# experimental.details: NCI tumour cell line growth inhibition, 48 h
measurement.name: TGI

>>> measured_result("CC1=NN(C(=O)c2ccc(Cl)cc2)C(=O)/C1=C/c1ccccc1O")
"> 100 µM"
>>> measured_result("CCc1cc2c(c3c1CCCC3=O)CC1(Cc3ccc(C(=O)OC)cc3C1)C2 (configuration not stated)")
"> 100 µM"
>>> measured_result("COC(=O)c1c2c(cc3c1CC1(Cc4cc5c(c(C(C)=O)c4C1)CCC5)C3)CCC2 (configuration not stated)")
"> 100 µM"
>>> measured_result("Cc1ccc(S(=O)(=O)c2ccccc2[N+](=O)[O-])cc1")
"> 100 µM"
>>> measured_result("O=c1oc(C(C(F)(F)F)C(F)(F)F)nc2ccccc12")
"> 100 µM"
>>> measured_result("CC1(C)CC(=O)C2(CC(CSc3ccccc3)C(CS(=O)(=O)c3ccccc3)C2)C(=O)C1 (configuration not stated)")
"> 100 µM"
>>> measured_result("CCN(CC)C(=S)SS(=O)(=O)c1cccc(N)c1")
"> 100 µM"
>>> measured_result("CCOC(=O)c1cc(C)nc2c1c(=O)n(-c1ccccc1)c(=O)n2CCCCN1CCN(c2ccccc2)CC1")
"> 100 µM"
>>> measured_result("C/C(=N\\Nc1nc2cc(C(F)(F)F)ccc2s1)c1ccccn1")
"> 100 µM"
>>> measured_result("COC(=O)CC(NC(=O)OCc1ccccc1)C(C(=O)OCc1ccccc1)C(C)(OC)OC (configuration not stated)")
"> 100 µM"
>>> measured_result("Nc1ccc(S(=O)(=O)Nc2nc3ccccc3nc2N2CCCCCC2)cc1")
"52 µM"
>>> measured_result("C#Cc1nc2ccccc2c(=O)[nH]1")
"20.4 µM"
>>> measured_result("CN(C)CCSS(=O)(=O)O")
"> 100 µM"
>>> measured_result("COC(=O)C1C(=O)N(C)C(=O)N2CCCC12 (configuration not stated)")
"> 100 µM"
>>> measured_result("C[C@]12CC[C@H](O)CC1=CC[C@@H]1C2CC[C@]2(C)Nc3c(cnn3-c3ccccc3)CC12 (some centres not stated)")
"10.2 µM"
>>> measured_result("C=CCC1=C(C)C[C@@H]2CCC(=O)C=C12")
"> 100 µM"
>>> measured_result("N#Cc1cc2c(n(C3OC(CO)C(O)C(O)C3O)c1=S)CCCCCC2 (configuration not stated)")
"> 100 µM"
>>> measured_result("O=C1C=CC(=O)c2c(O)c(NCCOCCO)c(Cl)c(O)c21")
"> 100 µM"
>>> measured_result("O=C(Cc1ccc(Cl)c(Cl)c1)NCC1(N2CCCCC2)CCCCC1")
"> 100 µM"
>>> measured_result("O=c1[nH]c2ccccc2n1CCCN1CCC(n2c(=O)[nH]c3cc(Cl)ccc32)CC1")
"65 µM"
>>> measured_result("Cc1ccc(S(=O)(=O)Nc2nnc(S(N)(=O)=O)s2)cc1")
"> 100 µM"
>>> measured_result("COc1ccc2[nH]c(O)c(/C=c3/cc4c(c(-c5ccc(F)c(OC)c5)n3)=Nc3ccccc3-4)c2c1")
"10.2 µM"
>>> measured_result("COc1ccc(CCn2c(=O)c3ccccc3n(C)c2=O)cc1")
"> 100 µM"
>>> measured_result("COc1ccc(C(=O)C(CC2C(=O)NC(=O)NC2=O)c2ccc(OC)cc2)cc1 (configuration not stated)")
"> 100 µM"
>>> measured_result("NCC(O)CSCc1ccc(Cl)cc1 (configuration not stated)")
"> 100 µM"
>>> measured_result("N.N.N.N.N.O=[N+]([O-])[O-].[Co+3].[O-][Cl+3]([O-])([O-])[O-]")
"> 100 µM"
>>> measured_result("COC(=O)C1=C(C(=O)OC)C2(C)C=CC1O2 (configuration not stated)")
"19.4 µM"
>>> measured_result("O=[N+]([O-])c1cccc(N=Nc2c(O)c(S(=O)(=O)O)cc3cc(S(=O)(=O)O)ccc23)c1")
"> 100 µM"
>>> measured_result("O=c1[nH]c2nc(NC3CCOCC3)ncc2cc1Oc1ccc(F)cc1F")
"> 25 µM"
>>> measured_result("CC(C)=CCNc1nc(Cl)nc2nc[nH]c12")
"> 100 µM"
>>> measured_result("Cc1c2c(c(C)c3c4c(oc13)CCCC4)C=NCC2")
"37.4 µM"
>>> measured_result("O=C1CCC(N2C(=O)c3ccccc3C2=O)C(=O)N1 (configuration not stated)")
"> 100 µM"
>>> measured_result("C1CC2CN(CCCN3CCOCC3)C(C1)O2 (configuration not stated)")
"> 100 µM"
>>> measured_result("Cc1ccccc1-c1nc2c(C(=O)NCCN(C)C)cccc2[nH]1")
"> 61.1 µM"
>>> measured_result("Cc1ccc(S(=O)(=O)Nn2c(O)c(C#N)c(-c3ccc(Cl)cc3)c(C#N)c2=O)cc1")
"> 100 µM"
>>> measured_result("CC1=Cc2ccc(C)cc2C(=O)C1=O")
"> 23.9 µM"
>>> measured_result("C=CCO/N=C(\\OC(=O)c1ccc([N+](=O)[O-])cc1)c1ccccc1")
"> 100 µM"
>>> measured_result("c1cncc(CNCc2cccnc2)c1")
"> 100 µM"
>>> measured_result("CCOC(=O)Nn1c(CC#N)nnc1Cc1ccccc1")
"> 100 µM"
>>> measured_result("O=c1[nH]n(Cc2ccccc2)c2ccc([N+](=O)[O-])cc12")
"> 100 µM"
>>> measured_result("CCOC(=O)N1CCc2cc(OC)c(OC)cc2/C1=C\\c1ccc(OC)c(OC)c1")
"> 10 µM"
>>> measured_result("O=C(N/N=C/C=C/c1ccccc1)c1ccccc1Nc1ccccc1C(=O)N/N=C/C=C/c1ccccc1")
"> 100 µM"
>>> measured_result("OCc1ccc(-c2cscc2-c2ccc(CO)o2)o1")
"> 100 µM"
>>> measured_result("Cc1cccc(C)c1NC(=O)CCc1nc(=S)[nH][nH]1")
"> 100 µM"
>>> measured_result("CC(Oc1ccccc1Cl)C(=O)NN1C(=O)CSC1c1ccccc1 (configuration not stated)")
"> 100 µM"
>>> measured_result("O=c1ncccn1C1OC(CO)C(O)C1O (configuration not stated)")
"> 100 µM"
>>> measured_result("CC(C)CCCC(C)[C@H]1CCC2[C@@H]3CCC4Nc5c(cnn5-c5ccccc5)C[C@]4(C)C3CC[C@@]21C (some centres not stated)")
"> 100 µM"
